I'd appreciate it if you could supply Morningglory plant response rating values for the items below.
Tested on: morningglory
Experiment: Test B pre/postemergence morningglory
Format: in vivo, Ipomoea hederacea
Details: Preemergence, Rate 250 g/ha; scale of 0 to 10 where 0 is no effect and 10 is complete control

See these solved cases before continuing.
{"columns": ["Molecule", "Experimental System", "Morningglory plant response rating"],
 "data": [
  ["CCN(C(=O)n1oc(=O)n(C2CC2)c1=O)C1CCCCC1", "morningglory", 0],
  ["CC1CC1n1c(=O)on(C(=O)N(c2ccc(F)cc2)C(C)C)c1=O (stereo not drawn)", "morningglory", 0],
  ["CC(C)N(C(=O)n1oc(=O)n(N2CCOCC2)c1=O)c1ccc(F)cc1", "morningglory", 0],
  ["CC1CC1n1c(=O)on(C(=O)N(c2ccc(F)cc2F)C(C)C)c1=O (stereo not drawn)", "morningglory", 2],
  ["CCOC(=O)C(C)N(C(=O)n1oc(=O)n(-c2ccccc2C)c1=O)c1ccc(F)cc1 (stereo not drawn)", "morningglory", 0]
]}

Turning now to a further molecule:
query: Please report the measured Morningglory plant response rating for [2H]C([2H])([2H])n1c(=O)on(C(=O)N(c2ccc(F)cc2)C(C)C)c1=O
result: 6
